# Test system: Leishmania amazonensis promastigotes
# Protocol Text: Anti-promastigotes assay (AlamarBlue, 72 h)
# Type: cell-based
# Condition: nonlinear regression of AlamarBlue curve, read-out: IC90 Leishmania amazonensis: promastigote
Observable: IC90 (µM)

Consider the reported IC90 for these compounds:
# Compound, Tested System, Unit String, IC90
data = [
    ("CCCCCCCCCCCCCCCCOP(=O)([O-])OCC[N+](C)(C)C [Miltefosine, reference compound]", "Leishmania amazonensis promastigotes", "µM", 9.63),
    ("C=C1CC[C@@H]([C@@](C)(O)CCC=C(C)C)[C@@H](O)[C@@H]2C(C)=CC[C@@H]12 [Compound 2, dictyol E]", "Leishmania amazonensis promastigotes", "µM", 34.9),
]

P: CC(C)=CCC[C@](C)(O)[C@@H]1CC[C@@H](C)[C@@H]2CC=C(C)[C@H]2[C@@H]1O [Compound 1, pachydictyol C]
Q: C=C(C)[C@H]1CC[C@]2(C)C[C@@H]3O[C@@]3(C)CC/C=C(\C)CC[C@@H]12 [Compound 3, 3,4-epoxy-7,18-dolabelladiene]
## Task Returns: the argument ( P or Q ) having the larger IC90. API: response body contains the label of the selected item.
## Result Q
